This collection of values is drawn from ChEMBL document CHEMBL1201862.

- system: UniProtKB Q6QLK5
- Sequence (Q6QLK5 whole entry, the tested form may be a part): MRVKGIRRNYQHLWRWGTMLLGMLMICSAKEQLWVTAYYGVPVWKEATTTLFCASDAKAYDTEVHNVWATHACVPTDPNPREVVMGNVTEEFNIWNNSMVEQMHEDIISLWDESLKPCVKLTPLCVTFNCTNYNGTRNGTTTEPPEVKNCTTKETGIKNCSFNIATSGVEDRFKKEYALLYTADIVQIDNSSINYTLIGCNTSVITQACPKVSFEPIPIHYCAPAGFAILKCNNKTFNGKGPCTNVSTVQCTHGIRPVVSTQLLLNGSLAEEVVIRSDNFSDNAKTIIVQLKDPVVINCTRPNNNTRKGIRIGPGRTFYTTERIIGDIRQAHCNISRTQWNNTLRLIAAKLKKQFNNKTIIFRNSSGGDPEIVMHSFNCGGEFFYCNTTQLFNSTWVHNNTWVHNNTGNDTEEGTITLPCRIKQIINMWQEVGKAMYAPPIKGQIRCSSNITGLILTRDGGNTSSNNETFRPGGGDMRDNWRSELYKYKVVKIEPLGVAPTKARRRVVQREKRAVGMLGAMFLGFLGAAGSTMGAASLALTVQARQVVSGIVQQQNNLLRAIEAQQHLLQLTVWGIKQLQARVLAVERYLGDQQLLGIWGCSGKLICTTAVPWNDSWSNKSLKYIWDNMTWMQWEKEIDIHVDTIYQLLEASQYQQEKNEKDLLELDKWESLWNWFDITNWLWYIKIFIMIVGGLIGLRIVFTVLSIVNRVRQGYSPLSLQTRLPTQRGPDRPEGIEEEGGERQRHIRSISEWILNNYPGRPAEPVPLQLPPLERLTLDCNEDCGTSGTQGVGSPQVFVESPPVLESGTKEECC
- experimentDescription: inhibitors of HIV fusion peptide binding, primary screen, biochemical, uHTS, fluorescence dequenching (AID 1986)
Activity calls are given as the source filed them. Cut-off read from the data, not from the text of the source: actives have a measured IC50 and inactives only a lower limit.
Listed molecules paired with reported IC50
measuredAttribute: IC50

{"molecule": "COc1cc([N+](=O)[O-])cc(/C=C2/SC(=S)N(Cc3ccccc3)C2=O)c1O", "measuredAttribute": "IC50", "result": "32.6 µM (active)"}
{"molecule": "CCOC(=O)C1=C(C)N=c2s/c(=C\\c3ccc(OCC(=O)O)cc3)c(=O)n2C1c1ccc(Cl)cc1 (centres undefined)", "measuredAttribute": "IC50", "result": "13.8 µM (active)"}
{"molecule": "O=C(O)c1ccc(N2C(=O)/C(=C/c3ccc(-c4ccc([N+](=O)[O-])cc4)o3)C=C2c2ccccc2)cc1", "measuredAttribute": "IC50", "result": "9.9 µM (active)"}
{"molecule": "CC(=O)Nc1sc(/C(C#N)=C/c2ccc(Cl)c(Cl)c2)nc1-c1ccc(C)cc1", "measuredAttribute": "IC50", "result": "2.04 µM (active)"}
